Origin of measurements: patent US20220226425A1

Give measured Selectivity Ratios MC4R/MC3R for each item. Keep answers brief.
Measurement target: MC-3R (Homo sapiens, UniProt P41968)
Sequence (P41968 whole entry): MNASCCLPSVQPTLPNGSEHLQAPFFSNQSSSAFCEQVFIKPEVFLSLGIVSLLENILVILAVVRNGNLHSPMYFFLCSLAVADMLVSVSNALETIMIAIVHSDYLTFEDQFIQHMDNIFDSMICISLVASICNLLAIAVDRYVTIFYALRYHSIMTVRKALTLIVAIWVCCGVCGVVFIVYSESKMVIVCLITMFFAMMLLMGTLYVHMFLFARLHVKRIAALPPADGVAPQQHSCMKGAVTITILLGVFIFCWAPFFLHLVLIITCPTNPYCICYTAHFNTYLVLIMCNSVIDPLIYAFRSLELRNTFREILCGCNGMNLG
Assay overview: cAMP accumulation via β-galactosidase (β-Gal) reporter system (cAMP Hunter GPCR assay)
Type: cell-based
Measurement conditions: ratio of EC-50 values, MC-3R versus MC-4R
Where a SMILES comes first, the peptide text is derived from it. Bridges are numbered along the chain shown (N, C = ends). [ ]: non-standard residue; d: D form. Pen = CC(C)(S)[C@H](N)C(=O)O; hCys = N[C@@H](CCS)C(=O)O

Here are 3 compounds. What values of Selectivity Ratios MC4R/MC3R were reported for them?
1. CC(=O)N[C@@H](CCCNC(=N)N)C(=O)N[C@H]1CCSSC(C)(C)[C@@H](C(N)=O)NC(=O)[C@H](Cc2c[nH]c3ccccc23)NC(=O)[C@H](CCCNC(=N)N)NC(=O)[C@@H](Cc2ccccc2)NC(=O)[C@H](CO)NC1=O [Compound 001556C, Ac-Arg-(hCys-Ser-D-Phe-Arg-Trp-Pen)-NH2] (Ac-R[hCys]S[dF]RW[Pen]-NH2; disulfide 2-7)
2. CC(=O)N[C@@H](CCCNC(=N)N)C(=O)N[C@H]1CCSSC(C)(C)[C@@H](C(N)=O)NC(=O)[C@H](Cc2c[nH]c3ccccc23)NC(=O)[C@H](CCCNC(=N)N)NC(=O)[C@@H](Cc2ccccc2)NC(=O)[C@H]([C@@H](C)O)NC1=O [Compound 001574C, Ac-Arg-(hCys-Thr-D-Phe-Arg-Trp-Pen)-NH2] (Ac-R[hCys]T[dF]RW[Pen]-NH2; disulfide 2-7)
3. CC(=O)N[C@@H](CCCNC(=N)N)C(=O)N[C@H]1CCSSC(C)(C)[C@@H](C(N)=O)NC(=O)[C@H](Cc2c[nH]c3ccccc23)NC(=O)[C@H](CCCNC(=N)N)NC(=O)[C@@H](Cc2ccccc2)NC(=O)[C@H](CC(N)=O)NC1=O [Compound 001554C, Ac-Arg-(hCys-Asn-D-Phe-Arg-Trp-Pen)-NH2] (Ac-R[hCys]N[dF]RW[Pen]-NH2; disulfide 2-7)

**A:**
[">1615.55", ">2705.95", ">1872.97"]
